target: MARK4 (Homo sapiens, UniProt Q96L34); test: Fluorescence binding studies; details: fluorescence quenching, modified Stern-Volmer
readout_kind: n (number of binding sites)
No unit in the answer, only the number.

*Q* What value of measured n (number of binding sites) is listed for COc1cc(C(=O)N/N=C2\C(=O)Nc3cc(Cl)ccc32)ccc1O [VI-4] ?
*A* 1.141

*Q* Can you handle COc1cc(C(=O)N/N=C2\C(=O)Nc3ccc(Br)cc32)ccc1O [VI-7] next?
*A* 1.067

*Q* Can you handle COc1cc(C(=O)N/N=C2\C(=O)Nc3c(Cl)cccc32)ccc1O [VI-9] next?
*A* 1.047

* * *

Target: MARK4 (Homo sapiens)
Sequence (Q96L34 59-368): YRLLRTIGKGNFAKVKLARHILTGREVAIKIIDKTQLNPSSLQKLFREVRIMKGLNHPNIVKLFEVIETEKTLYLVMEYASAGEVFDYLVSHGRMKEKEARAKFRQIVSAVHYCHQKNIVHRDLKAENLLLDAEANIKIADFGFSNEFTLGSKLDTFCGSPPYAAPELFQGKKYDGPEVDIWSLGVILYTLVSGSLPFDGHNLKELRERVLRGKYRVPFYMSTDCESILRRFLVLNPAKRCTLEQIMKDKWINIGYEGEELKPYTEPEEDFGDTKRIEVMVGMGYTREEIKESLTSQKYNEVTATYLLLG
Test: Fluorescence binding studies
Settings: fluorescence quenching, modified Stern-Volmer
readout_kind: n (number of binding sites)

*Q* Look up n (number of binding sites) with MARK4 (Homo sapiens) for this compound: COc1cc(C(=O)N/N=C2\C(=O)Nc3c2cccc3[N+](=O)[O-])ccc1O [VI-8]
*A* 0.8606

*Q* Can you handle COc1cc(C(=O)N/N=C2\C(=O)Nc3ccccc32)ccc1O [VI-1] next?
*A* 1.241

*Q* Can you handle COc1ccc2c(c1)/C(=N/NC(=O)c1ccc(O)c(OC)c1)C(=O)N2 [VI-3] next?
*A* 1.367

*Q* Can you handle COc1cc(C(=O)N/N=C2\C(=O)Nc3ccc(C)cc32)ccc1O [VI-2] next?
*A* 1.145

*Q* Can you handle COc1cc(C(=O)N/N=C2\C(=O)Nc3ccc(Cl)cc32)ccc1O [VI-6] next?
*A* 1.135

*Q* Can you handle COc1ccc2c(c1)NC(=O)/C2=N\NC(=O)c1ccc(O)c(OC)c1 [VI-13] next?
*A* 1.517

*Q* Can you handle COc1cc(C(=O)N/N=C2\C(=O)Nc3cc(Cl)c(F)cc32)ccc1O [VI-10] next?
*A* 1.006

*Q* Can you handle COc1cc(C(=O)N/N=C2\C(=O)Nc3cc(F)ccc32)ccc1O [VI-14] next?
*A* 1.199

*Q* Can you handle COc1cc(C(=O)N/N=C2\C(=O)Nc3c(C)cc(C)cc32)ccc1O [VI-5] next?
*A* 0.8404

* * *

Biological target: MARK4 (Homo sapiens)
Sequence (Q96L34 59-368): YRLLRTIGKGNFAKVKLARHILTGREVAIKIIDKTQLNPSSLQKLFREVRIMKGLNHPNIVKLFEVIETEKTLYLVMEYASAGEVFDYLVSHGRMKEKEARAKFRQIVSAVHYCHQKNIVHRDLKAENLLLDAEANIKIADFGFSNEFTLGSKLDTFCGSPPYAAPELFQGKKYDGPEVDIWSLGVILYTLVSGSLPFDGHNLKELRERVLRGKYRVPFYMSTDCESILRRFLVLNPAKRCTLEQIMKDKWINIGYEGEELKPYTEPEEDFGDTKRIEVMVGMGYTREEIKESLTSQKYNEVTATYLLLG
readout_kind: IC50 (µM)
Answer in µM, number only, no unit symbol.

*Q* What value of measured IC50 is listed for `COc1cc(C(=O)N/N=C2\C(=O)Nc3c(Cl)cccc32)ccc1O` ?
*A* 7.16
